These entries and their values trace back to patent US11566007B2.

System: NCI-H358 cells (K-Ras G12C)
Run description: Potency assay: pERK in NCI-H358 cells
Assay type: cell-based, human
Details: Homo sapiens, NCI-H358; H358 KRAS G12C; read-out: pERK EC50
pEC50: −log10 of the molar value.
Some compounds, each annotated with its measured pEC50.

Worked examples, 5 compounds total:
Compound	pEC50
C=CC(=O)N1CCC(F)(C(=O)N(C)[C@H](C(=O)N[C@H]2Cc3cc(O)cc(c3)-c3ccc4c(c3)c(c(-c3ccccc3CN(C)C)n4CC)CC(C)(C)COC(=O)[C@@H]3CCCN(N3)C2=O)C(C)C)CC1 [Example A20]	> 5.30
C=CC(=O)N1C[C@@H](C)[C@H](N(C)C(=O)N(C)[C@H](C(=O)N[C@H]2Cc3nc(cs3)-c3ccc4c(c3)c(c(-c3cccnc3[C@H](C)OC)n4CC)CC(C)(C)COC(=O)[C@@H]3CCCN(N3)C2=O)C(C)C)C1 (atropisomer, axis not shown) [Example A588]	> 5.30
C=CC(=O)N1CC[C@H](C(=O)N(C)[C@H](C(=O)N[C@H]2Cc3cc(O)cc(c3)-c3ccc4c(c3)c(c(-c3cccnc3N3CC(OC)C3)n4CC)CC(C)(C)COC(=O)[C@@H]3CCCN(N3)C2=O)C(C)C)C1 [Example A60]	> 5.30
C=CC(=O)C1CC[C@H](C(=O)N(C)[C@H](C(=O)N[C@H]2Cc3cc(O)cc(c3)-c3ccc4c(c3)c(c(-c3cnn(C)c3[C@H](C)OC)n4CC)CC(C)(C)COC(=O)[C@@H]3CCCN(N3)C2=O)C(C)C)C1 (some centres unmarked) [Example A166]	> 5.30
C=CC(=O)N1CC[C@]2(CCN([C@H](C(=O)N[C@H]3Cc4cccc(c4)-c4ccc5c(c4)c(c(-c4cccnc4[C@H](C)OC)n5CC)CC(C)(C)COC(=O)[C@@H]4CCCN(N4)C3=O)C(C)C)C2=O)C1 (atropisomer, axis not shown) [Example A470]	> 5.30

Measured pEC50 of C=CC(=O)N1CC[C@H](C(=O)N(C)[C@H](C(=O)N[C@H]2Cc3cc(O)cc(c3)-c3ccc4c(c3)c(c(-c3ccc(C5CCN(C)CC5)nc3)n4CC)CC(C)(C)COC(=O)[C@@H]3CCCN(N3)C2=O)C(C)C)C1 [Example A98] : > 5.30

Measured pEC50 of CCn1c(-c2cccnc2[C@H](C)OC)c2c3cc(ccc31)-c1cc(O)cc(c1)C[C@H](NC(=O)[C@H](C(C)C)N(C)C(=O)[C@H]1CCN(C(=O)C#CCN3[C@@H](C)COC[C@@H]3C)C1)C(=O)N1CCC[C@H](N1)C(=O)OCC(C)(C)C2 (atropisomer, axis not shown) [Example A244] : > 5.30

Measured pEC50 of C=CC(=O)N1CC[C@H](C(=O)N(C)[C@H](C(=O)N[C@H]2Cc3cc(O)cc(c3)-c3ccc4c(c3)c(c(-c3csc(N(C)C)n3)n4CC)CC(C)(C)COC(=O)[C@@H]3CCCN(N3)C2=O)C(C)C)C1 [Example A303] : > 5.30
